Assay: in vivo
Parameters: species or system rabbit
Conditions: female, rabbit, in vivo, iv, after 50 μg·kg^−1·min^−1 1 h i.v. infusion; read-out: free drug concentration
Procedure: All the other experimental groups were 100% female. The anaesthetized methoxamine‐sensitized rabbit model of TdP is frequently used to study torsadogenic potential of drugs (Carlsson et al., 1990). Briefly, female animals were pre‐sensitized with i.v. infusion of methoxamine, an α1‐adrenoceptor agonist, delivered at 15 μg·kg^−1·min^−1 (6 mL·h^−1) over 70 min.
READOUT KIND: concentration at 1 h

Given item Cl.Clc1ccc(CCCOCCCN2CCCCC2)cc1 , the value recorded as its concentration at 1 h is ~140 nM

###

assay: in vivo; settings: both sexes, Beagle, dog, in vivo, po, 5 mg·kg^−1 p.o., 1 h after administration, read-out: total drug exposure (serum level)
READOUT KIND: concentration at 1 h (ng/mL)
Report the figure in ng/mL without appending any unit label.

Given item Cl.Clc1ccc(CCCOCCCN2CCCCC2)cc1 [pitolisant] , the value recorded as its concentration at 1 h is 3.5

###

molecular target: CaV1.2 (Homo sapiens); experiment: cell-based; conditions: Pitolisant IC50, CaV1.2, ICaL
pIC50: −log10 of the molar value.
READOUT KIND: pIC50

Given item Cl.Clc1ccc(CCCOCCCN2CCCCC2)cc1 , the value recorded as its pIC50 is ~5.00

###

target: KV4.3 (Homo sapiens, UniProt Q9UK17); construct: expressed in transfected cells; assay: Whole-cell patch clamp on KV4.3 (Ito); assay type: cell-based; conditions: KV4.3 Ito; Hill curve fit with Hill coefficient of one; read-out: Fitted IC50
Sequence (Q9UK17 whole entry): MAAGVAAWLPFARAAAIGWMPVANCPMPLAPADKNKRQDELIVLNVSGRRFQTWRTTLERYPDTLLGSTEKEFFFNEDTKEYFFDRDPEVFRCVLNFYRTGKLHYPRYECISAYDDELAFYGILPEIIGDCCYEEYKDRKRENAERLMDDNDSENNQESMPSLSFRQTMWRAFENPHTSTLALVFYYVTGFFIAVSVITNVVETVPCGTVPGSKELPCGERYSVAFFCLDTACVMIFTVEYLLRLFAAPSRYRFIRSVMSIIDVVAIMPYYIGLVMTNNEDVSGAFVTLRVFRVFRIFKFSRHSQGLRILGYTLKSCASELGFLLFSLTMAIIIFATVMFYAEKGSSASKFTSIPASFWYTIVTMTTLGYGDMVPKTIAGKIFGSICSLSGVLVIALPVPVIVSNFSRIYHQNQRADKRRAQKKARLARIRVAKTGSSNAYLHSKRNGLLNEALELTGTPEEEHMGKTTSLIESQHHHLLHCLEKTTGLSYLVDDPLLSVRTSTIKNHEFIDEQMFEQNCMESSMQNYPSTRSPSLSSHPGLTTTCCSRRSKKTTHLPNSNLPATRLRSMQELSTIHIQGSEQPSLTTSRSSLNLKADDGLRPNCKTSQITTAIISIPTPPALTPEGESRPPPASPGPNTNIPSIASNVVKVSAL
READOUT KIND: pIC50
The value called pIC50 is obtained by taking minus log10 of the concentration in mol/L.

Given item Cl.Clc1ccc(CCCOCCCN2CCCCC2)cc1 , the value recorded as its pIC50 is 4.94

###

Molecular target: NaV1.5 (Homo sapiens, UniProt Q14524)
Sequence (Q14524 whole entry): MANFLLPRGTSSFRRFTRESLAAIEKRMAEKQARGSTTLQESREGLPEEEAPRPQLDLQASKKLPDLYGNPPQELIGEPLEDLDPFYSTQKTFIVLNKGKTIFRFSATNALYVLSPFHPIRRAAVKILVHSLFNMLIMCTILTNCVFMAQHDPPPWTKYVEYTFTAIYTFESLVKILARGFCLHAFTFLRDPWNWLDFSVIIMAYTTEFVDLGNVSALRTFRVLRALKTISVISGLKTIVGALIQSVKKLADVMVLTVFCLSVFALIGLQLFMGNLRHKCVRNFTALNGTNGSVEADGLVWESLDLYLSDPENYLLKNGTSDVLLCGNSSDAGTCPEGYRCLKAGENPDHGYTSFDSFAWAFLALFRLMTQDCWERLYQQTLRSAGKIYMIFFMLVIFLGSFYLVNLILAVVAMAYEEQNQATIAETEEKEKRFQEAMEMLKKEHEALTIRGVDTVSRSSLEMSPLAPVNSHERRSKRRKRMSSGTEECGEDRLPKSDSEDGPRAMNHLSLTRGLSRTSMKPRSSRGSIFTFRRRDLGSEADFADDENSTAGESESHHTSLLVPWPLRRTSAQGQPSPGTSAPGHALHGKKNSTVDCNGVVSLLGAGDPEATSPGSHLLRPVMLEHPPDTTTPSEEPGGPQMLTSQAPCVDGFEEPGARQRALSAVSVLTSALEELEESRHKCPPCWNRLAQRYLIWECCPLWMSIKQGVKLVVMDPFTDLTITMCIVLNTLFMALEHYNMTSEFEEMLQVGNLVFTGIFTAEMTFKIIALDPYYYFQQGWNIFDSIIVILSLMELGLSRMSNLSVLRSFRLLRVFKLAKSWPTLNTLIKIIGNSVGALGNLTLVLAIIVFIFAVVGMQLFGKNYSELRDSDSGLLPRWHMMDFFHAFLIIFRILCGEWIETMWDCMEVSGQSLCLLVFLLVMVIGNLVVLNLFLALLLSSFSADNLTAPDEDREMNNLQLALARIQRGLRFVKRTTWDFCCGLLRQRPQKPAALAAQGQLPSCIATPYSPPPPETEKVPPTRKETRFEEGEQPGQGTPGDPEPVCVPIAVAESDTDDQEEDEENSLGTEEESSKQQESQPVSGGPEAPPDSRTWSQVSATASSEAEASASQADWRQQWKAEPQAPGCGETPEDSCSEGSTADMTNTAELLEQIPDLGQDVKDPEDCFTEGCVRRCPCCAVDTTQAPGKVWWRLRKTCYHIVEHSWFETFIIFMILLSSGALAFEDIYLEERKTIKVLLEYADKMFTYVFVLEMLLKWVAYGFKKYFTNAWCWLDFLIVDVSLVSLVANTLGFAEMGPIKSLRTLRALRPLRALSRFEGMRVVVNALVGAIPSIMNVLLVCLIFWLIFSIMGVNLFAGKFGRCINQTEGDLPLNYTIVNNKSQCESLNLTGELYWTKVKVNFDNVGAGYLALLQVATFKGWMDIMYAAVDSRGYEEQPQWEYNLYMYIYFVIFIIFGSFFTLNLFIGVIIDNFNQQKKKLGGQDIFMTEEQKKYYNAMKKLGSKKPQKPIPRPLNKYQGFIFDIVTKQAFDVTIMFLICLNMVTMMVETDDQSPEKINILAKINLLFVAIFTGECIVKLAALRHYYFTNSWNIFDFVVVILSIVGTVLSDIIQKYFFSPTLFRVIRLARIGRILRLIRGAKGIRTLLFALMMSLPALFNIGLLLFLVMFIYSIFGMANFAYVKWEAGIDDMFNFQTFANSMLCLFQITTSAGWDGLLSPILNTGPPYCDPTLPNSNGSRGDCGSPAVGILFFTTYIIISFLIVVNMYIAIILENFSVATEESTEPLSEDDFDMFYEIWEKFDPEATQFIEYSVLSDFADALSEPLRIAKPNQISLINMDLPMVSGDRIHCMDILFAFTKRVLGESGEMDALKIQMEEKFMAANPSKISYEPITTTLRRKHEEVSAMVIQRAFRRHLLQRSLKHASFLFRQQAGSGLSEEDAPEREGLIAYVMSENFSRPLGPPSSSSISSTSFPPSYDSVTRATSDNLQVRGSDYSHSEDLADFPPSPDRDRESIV
Test: cell-based
Details: Fitted IC50, fit to slow inactivated Nav1.5
Procedure: and CiPA Initiative Studies ============================================================= In vitro studies on other ion channels […] through NaV1.5, KV4.3, KV7.1/mink, Kir2.1, KV1.5, CaV1.2 and CaV3.2 channels. 35-mm dish culture in the conditions mentioned in standard cell culture conditions. Experiments were performed with a cell density enabling isolated cells for patch clamping. Cells were continuously superfused with extracellular medium (1-2 mL∙minute-1) at room temperature. […]
READOUT KIND: IC50 (µM)
Report the figure in µM without appending any unit label.

# Cl.Clc1ccc(CCCOCCCN2CCCCC2)cc1 with NaV1.5 (Homo sapiens, UniProt Q14524): IC50 is 26.5

###

experiment: in vivo; parameters: species or system rabbit; conditions: female, rabbit, in vivo, iv, after 150 μg·kg^−1·min^−1 1 h i.v. infusion; read-out: free drug concentration
READOUT KIND: concentration at 1 h

Given item Cl.Clc1ccc(CCCOCCCN2CCCCC2)cc1 , the value recorded as its concentration at 1 h is ~450 nM

###

target: UniProtKB Q12809
Sequence (Q12809 whole entry): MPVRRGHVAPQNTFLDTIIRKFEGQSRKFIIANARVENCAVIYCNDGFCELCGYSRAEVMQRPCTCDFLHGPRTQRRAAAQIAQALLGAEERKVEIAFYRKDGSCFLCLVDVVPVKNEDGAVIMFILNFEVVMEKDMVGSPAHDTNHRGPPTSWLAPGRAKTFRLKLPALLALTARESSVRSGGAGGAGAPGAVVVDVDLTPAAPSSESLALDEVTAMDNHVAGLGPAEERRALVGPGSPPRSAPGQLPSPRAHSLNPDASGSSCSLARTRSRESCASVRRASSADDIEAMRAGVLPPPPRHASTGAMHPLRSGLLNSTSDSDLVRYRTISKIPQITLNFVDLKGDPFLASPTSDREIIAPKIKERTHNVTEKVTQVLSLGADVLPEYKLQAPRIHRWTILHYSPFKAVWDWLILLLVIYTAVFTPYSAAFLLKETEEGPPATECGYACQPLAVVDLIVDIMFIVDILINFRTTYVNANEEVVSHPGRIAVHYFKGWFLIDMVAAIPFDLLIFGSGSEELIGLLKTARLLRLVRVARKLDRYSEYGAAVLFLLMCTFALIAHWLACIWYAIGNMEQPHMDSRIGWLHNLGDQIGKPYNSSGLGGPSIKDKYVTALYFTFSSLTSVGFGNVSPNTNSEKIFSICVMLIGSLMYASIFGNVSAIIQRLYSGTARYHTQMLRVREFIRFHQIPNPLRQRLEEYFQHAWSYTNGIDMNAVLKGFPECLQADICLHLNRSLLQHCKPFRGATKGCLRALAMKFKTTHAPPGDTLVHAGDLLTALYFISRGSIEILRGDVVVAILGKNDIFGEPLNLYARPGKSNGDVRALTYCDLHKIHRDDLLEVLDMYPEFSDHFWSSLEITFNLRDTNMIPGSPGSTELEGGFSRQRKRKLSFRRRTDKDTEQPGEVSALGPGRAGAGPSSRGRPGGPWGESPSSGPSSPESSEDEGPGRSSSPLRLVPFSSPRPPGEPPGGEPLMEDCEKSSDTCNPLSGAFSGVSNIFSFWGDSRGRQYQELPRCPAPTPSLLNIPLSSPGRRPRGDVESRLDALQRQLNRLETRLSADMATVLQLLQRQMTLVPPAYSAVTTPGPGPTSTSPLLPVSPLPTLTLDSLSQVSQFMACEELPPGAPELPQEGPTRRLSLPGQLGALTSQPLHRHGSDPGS
READOUT KIND: pIC50
The value called pIC50 is obtained by taking minus log10 of the concentration in mol/L.

# Cl.Clc1ccc(CCCOCCCN2CCCCC2)cc1 with UniProtKB Q12809: pIC50 is 5.89

###

molecular target: NaV1.5 (Homo sapiens); assay: cell-based; conditions: Fitted IC50, fit to fast inactivated Nav1.5
READOUT KIND: IC50 (µM)
Report the figure in µM without appending any unit label.

Given item Cl.Clc1ccc(CCCOCCCN2CCCCC2)cc1 [pitolisant] , the value recorded as its IC50 is 26.3

###

assay: in vivo; settings: both sexes, Beagle, dog, in vivo, po, 15 mg·kg^−1 p.o., 1 h after administration, read-out: total drug exposure (serum level)
READOUT KIND: concentration at 1 h (ng/mL)
Report the figure in ng/mL without appending any unit label.

Given item Cl.Clc1ccc(CCCOCCCN2CCCCC2)cc1 [pitolisant] , the value recorded as its concentration at 1 h is 59

###

target: CaV1.2 (Homo sapiens); assay: cell-based; conditions: Fitted IC50, CaV1.2 ICaL; Hill curve fit with Hill coefficient of one
READOUT KIND: IC50 (µM)
Report the figure in µM without appending any unit label.

Given item Cl.Clc1ccc(CCCOCCCN2CCCCC2)cc1 [pitolisant] , the value recorded as its IC50 is 9.5

###

Target protein (sequence): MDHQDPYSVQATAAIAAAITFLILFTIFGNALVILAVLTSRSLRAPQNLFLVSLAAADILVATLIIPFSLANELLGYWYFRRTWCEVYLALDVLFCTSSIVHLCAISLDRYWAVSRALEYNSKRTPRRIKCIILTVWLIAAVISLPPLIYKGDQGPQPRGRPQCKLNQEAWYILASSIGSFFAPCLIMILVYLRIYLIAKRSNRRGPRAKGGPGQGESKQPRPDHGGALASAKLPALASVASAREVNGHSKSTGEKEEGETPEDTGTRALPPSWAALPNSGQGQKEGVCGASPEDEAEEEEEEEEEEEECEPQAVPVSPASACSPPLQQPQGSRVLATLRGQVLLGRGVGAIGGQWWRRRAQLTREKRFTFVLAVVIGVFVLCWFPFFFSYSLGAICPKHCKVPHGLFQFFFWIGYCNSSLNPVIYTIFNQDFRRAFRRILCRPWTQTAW
READOUT KIND: pKi
The value called pKi is obtained by taking minus log10 of the concentration in mol/L.

Given item Cl.Clc1ccc(CCCOCCCN2CCCCC2)cc1 , the value recorded as its pKi is 5.37

###

biological target: KV1.5 (Homo sapiens); construct: expressed in transfected cells; test: Whole-cell patch clamp on KV1.5 (IKur); type: cell-based; settings: Pitolisant IC50, KV1.5, IKur
Sequence (P22460 whole entry): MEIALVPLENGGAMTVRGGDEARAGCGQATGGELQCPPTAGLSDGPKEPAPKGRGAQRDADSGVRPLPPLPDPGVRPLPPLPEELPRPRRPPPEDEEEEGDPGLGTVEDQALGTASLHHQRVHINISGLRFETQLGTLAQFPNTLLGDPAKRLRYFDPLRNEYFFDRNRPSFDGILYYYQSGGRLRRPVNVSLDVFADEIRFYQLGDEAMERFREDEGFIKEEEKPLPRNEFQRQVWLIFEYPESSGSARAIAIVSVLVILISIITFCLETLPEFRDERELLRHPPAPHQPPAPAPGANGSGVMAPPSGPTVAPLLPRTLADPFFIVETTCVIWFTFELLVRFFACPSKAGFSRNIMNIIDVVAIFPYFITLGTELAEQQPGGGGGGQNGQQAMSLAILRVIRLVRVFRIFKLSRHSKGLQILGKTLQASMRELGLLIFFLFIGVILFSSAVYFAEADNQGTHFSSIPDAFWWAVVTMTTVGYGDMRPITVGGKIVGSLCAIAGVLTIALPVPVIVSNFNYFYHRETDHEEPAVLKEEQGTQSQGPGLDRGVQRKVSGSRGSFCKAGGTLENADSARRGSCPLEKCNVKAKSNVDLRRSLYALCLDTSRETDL
pIC50: −log10 of the molar value.
READOUT KIND: pIC50

Given item Cl.Clc1ccc(CCCOCCCN2CCCCC2)cc1 [pitolisant] , the value recorded as its pIC50 is ≤ 5.00

###

biological target: NaV1.5 (Homo sapiens, UniProt Q14524); experiment: cell-based; conditions: Fitted IC50, mean of fits to fast and slow inactivated Nav1.5, used for the whole Nav1.5 current; Hill coefficient of one
READOUT KIND: IC50 (µM)
Report the figure in µM without appending any unit label.

Given item Cl.Clc1ccc(CCCOCCCN2CCCCC2)cc1 , the value recorded as its IC50 is 26.4
